Target: recombinant human ALK enzyme (ALK WT) (Homo sapiens, UniProt Q9UM73)
Construct: purchased Carna Biosciences 08-518
Sequence (Q9UM73 1058-1620 limits assumed): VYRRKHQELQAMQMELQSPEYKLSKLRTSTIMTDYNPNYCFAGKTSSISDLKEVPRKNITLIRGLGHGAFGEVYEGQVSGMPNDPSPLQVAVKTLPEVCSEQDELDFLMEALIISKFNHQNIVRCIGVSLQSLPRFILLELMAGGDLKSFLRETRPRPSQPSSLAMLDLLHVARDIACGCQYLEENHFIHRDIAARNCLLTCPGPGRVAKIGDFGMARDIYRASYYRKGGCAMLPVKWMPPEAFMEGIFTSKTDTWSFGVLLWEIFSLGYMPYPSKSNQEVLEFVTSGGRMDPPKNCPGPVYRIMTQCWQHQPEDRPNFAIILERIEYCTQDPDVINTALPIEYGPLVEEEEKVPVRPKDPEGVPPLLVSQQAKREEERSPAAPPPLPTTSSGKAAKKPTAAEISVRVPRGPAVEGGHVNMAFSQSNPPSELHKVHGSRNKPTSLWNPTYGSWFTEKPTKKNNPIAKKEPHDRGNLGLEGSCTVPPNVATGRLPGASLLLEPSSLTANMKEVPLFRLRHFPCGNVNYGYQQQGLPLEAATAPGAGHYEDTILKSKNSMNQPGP
Assay: ALK WT cell free enzymatic assay (TR-FRET)
Format: biochemical
Settings: 10 point dose response; 1 μM ATP
Where a name gives a salt, the structure may show the parent alone.
measured attribute: IC50

Query block: So what's the measured IC50 for this one? Cc1c(-c2c[nH]c3ncc(-c4ccc(C5CCNCC5)cc4)cc23)cnn1Cc1cccc(F)c1
Result block: < 50 nM

Query block: So what's the measured IC50 for this one? C[C@H](O)CN1CCC(c2ccc(-c3cnc4[nH]cc(-c5cnn(Cc6cccc(F)c6)c5)c4c3)cc2)CC1 [Example 82A]
Result block: < 50 nM

Query block: So what's the measured IC50 for this one? CS(=O)(=O)Nc1cccc(-c2cnc3[nH]cc(-c4cnn(Cc5ccccc5F)c4)c3c2)c1
Result block: 50 to 250 nM

Query block: So what's the measured IC50 for this one? Fc1cc(F)cc(Cn2cc(-c3c[nH]c4ncc(-c5ccc(C6CCNCC6)c(F)c5)cc34)cn2)c1
Result block: < 50 nM

Query block: So what's the measured IC50 for this one? Cc1nn(Cc2cccc(OC(F)(F)F)c2)c(C)c1-c1c[nH]c2ncc(-c3ccc(N4CCNCC4)cc3)cc12 [Example 52, hydrochloride]
Result block: > 250 nM

Query block: So what's the measured IC50 for this one? Cc1nn(Cc2cccc(F)c2)c(C)c1-c1c[nH]c2ncc(-c3ccc(C4CCNCC4)cc3)cc12
Result block: < 50 nM

Query block: So what's the measured IC50 for this one? O=C(CO)N1CCN(c2ccc(-c3cnc4[nH]cc(-c5cnn(Cc6cccc(F)c6)c5)c4c3)cc2)CC1
Result block: < 50 nM

* * *

I'd appreciate it if you could supply inhibition at 1 µM values for the items below.
Target: recombinant human ALK enzyme (ALK WT) (Homo sapiens)
Construct: purchased Carna Biosciences 08-518
Test: ALK WT cell free enzymatic assay (TR-FRET)
Type: biochemical
Details: compound at 1 μM; 30 min pre-incubation; 1 μM ATP
Where a name gives a salt, the structure may show the parent alone.
Write the number in % without appending the unit.

Query block: So what's the measured inhibition at 1 µM for this one? CC(C)N1CCN(c2cccc(-c3cnc4[nH]cc(-c5cnn(Cc6cccc(F)c6)c5)c4c3)c2)CC1 [Example 35]
Result block: 99

Query block: So what's the measured inhibition at 1 µM for this one? Cc1nn(Cc2cccc(F)c2)c(C)c1-c1c[nH]c2ncc(-c3ccc(N4CCN(C)CC4)cc3)cc12 [Example 56]
Result block: 100

Query block: So what's the measured inhibition at 1 µM for this one? CNS(=O)(=O)c1cc(-c2cnc3[nH]cc(-c4c(C)nn(Cc5cc(F)ccc5F)c4C)c3c2)ccc1OC [Example 20]
Result block: 75

Query block: So what's the measured inhibition at 1 µM for this one? Cc1nn(Cc2cc(F)cc(F)c2)c(C)c1-c1c[nH]c2ncc(-c3ccc(N4CCNCC4)cc3)cc12 [Example 43, hydrochloride]
Result block: 99

Query block: So what's the measured inhibition at 1 µM for this one? Cc1c(-c2c[nH]c3ncc(-c4ccc(N5CCNCC5)cc4)cc23)cnn1Cc1cccc(F)c1 [Example 44, hydrochloride]
Result block: 100

Query block: So what's the measured inhibition at 1 µM for this one? CS(=O)(=O)Nc1cccc(-c2cnc3[nH]cc(-c4cnn(Cc5cccc([N+](=O)[O-])c5)c4)c3c2)c1 [Example 7]
Result block: 53

Query block: So what's the measured inhibition at 1 µM for this one? Cc1nn(Cc2cccc(F)c2)c(C)c1-c1c[nH]c2ncc(-c3ccc(OCCN(C)C)c(NS(C)(=O)=O)c3)cc12 [Example 23]
Result block: 99
